// bioavailability lookup, one value per entry
experiment-summary: in vivo
assay-context: Sprague-Dawley, rat, po, 5 mg/kg
Answer in %, number only, no unit symbol.

Worked set:
CCCCCOC(=O)N1CCN(C(=O)[C@H](CCC(=O)O)NC(=O)c2cc(N3CCC(CN)CC3)cc(-c3ccccc3)n2)CC1    0
CCCCOC(=O)N1CCN(C(=O)[C@H](CCC(=O)O)NC(=O)c2cc(OCCOC)cc(-c3ccccc3)n2)CC1    77
CCCCCOC(=O)N1CCN(C(=O)[C@H](CCC(=O)O)NC(=O)c2cc(OC3CCNCC3)cc(-c3ccccc3)n2)CC1    1

Okay, now this compound:
**Query** Supply measured bioavailability of CCCCCOC(=O)N1CCN(C(=O)[C@H](CCC(=O)O)NC(=O)c2cccc(-c3ccccc3)n2)CC1 in your reply.
**Result** 70
